Target: Alpha-galactosidase (Coffea arabica) (UniProt Q42656)
Sequence (Q42656 whole entry, looked up): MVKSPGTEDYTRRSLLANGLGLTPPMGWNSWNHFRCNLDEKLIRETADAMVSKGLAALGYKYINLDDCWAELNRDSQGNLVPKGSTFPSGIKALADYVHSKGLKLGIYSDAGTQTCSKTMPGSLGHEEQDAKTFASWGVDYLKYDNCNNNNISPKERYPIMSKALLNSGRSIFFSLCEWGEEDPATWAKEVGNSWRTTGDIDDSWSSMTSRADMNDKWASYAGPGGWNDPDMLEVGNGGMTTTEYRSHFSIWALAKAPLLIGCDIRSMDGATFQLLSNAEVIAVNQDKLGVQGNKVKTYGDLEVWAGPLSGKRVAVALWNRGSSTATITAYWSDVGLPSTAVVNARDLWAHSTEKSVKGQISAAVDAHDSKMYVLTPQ
Experiment: Counterscreen for Glucocerebrosidase Inhibitors: qHTS Assay for Coffee Bean alpha-Galactosidase at pH 5.9 (AID 998)
Settings: coffee bean alpha-galactosidase enzyme assay; series mostly up to 76.9 µM
From the text: NIH Chemical Genomics Center [NCGC] NIH Molecular Libraries Screening Centers Network [MLSCN] PI Name: Zheng, Wei [NIH] […] This is a fluorogenic enzyme assay with 4-Methylumbelliferyl alpha-D-galactopyranoside as the substrate and green coffee bean […] (from Sigma-Aldrich) as the enzyme preparation. […] 4-Methyllumbelliferone, can be excited at 365 nm and emits at 440 nm which can be detected by a standard fluorescence plate reader. […]
Activity calls are given as the source filed them. Calls follow the shape of the dose curve; as a rule, active = well fitted curve in the direction sought with a large enough effect; inactive = no such curve, though single readings can be large or run the other way.
OUTCOME MEASURE: outcome

INSERT INTO measurements (compound, recorded_value) VALUES
  ('CC[C@@H](CO)Nc1nc(NCc2ccccc2)c2ncn(C(C)C)c2n1', 'inactive'),
  ('CC1(C)CCC(NC(=O)[C@H](N)CCC(=O)O)CC1', 'inactive'),
  ('NCCCCCCNS(=O)(=O)c1cccc2c(Cl)cccc12', 'inactive'),
  ('CCN(c1nc(N)c(C(=O)N=C(N)N)nc1Cl)C(C)C', 'inactive'),
  ('NCCC(=O)NCCc1cnc[nH]1', 'inactive'),
  ('Cc1ccccc1/C=C\C1=NCCN1', 'inactive'),
  ('NCCCCNS(=O)(=O)c1cccc2c(Cl)cccc12', 'inactive'),
  ('CN1CCc2cccc3c2[C@@H]1Cc1ccc(O)c(O)c1-3', 'inactive'),
  ('C[C@@H]1CNCCN1S(=O)(=O)c1cccc2cnccc12', 'inactive'),
  ('OC[C@@H]1O[C@@H](n2cnc3c(N[C@@H]4C[C@@H]5CC[C@H]4C5)ncnc32)[C@@H](O)[C@H]1O', 'inactive'),
  ('OC[C@@H]1O[C@H](O)[C@@H](Cl)[C@H](O)[C@@H]1O', 'inactive'),
  ('Cc1ccc(/C(=C/CN2CCCC2)c2ccccn2)cc1', 'inactive'),
  ('CCN1CCC[C@@H]1CNC(=O)c1c(O)c(Cl)cc(Cl)c1OC', 'inactive'),
  ('CCCCCCCCCCCCCCCCCC(=O)NC[C@@H](COP(=O)([O-])OCC[N+](C)(C)C)OCC', 'inactive'),
  ('CC(=O)O[C@]1(C(C)=O)CC[C@@H]2[C@@H]3C=C(Cl)C4=CC(=O)[C@H]5C[C@@H]5[C@]4(C)[C@H]3CC[C@]21C', 'inactive'),
  ('CN(C)CCCO[C@H]1[C@H]([C@H](O)CO)O[C@H]2OC(C)(C)O[C@@H]21', 'inactive'),
  ('CN1[C@@H]2CC(OC(=O)[C@@H](CO)c3ccccc3)C[C@H]1[C@H]1O[C@H]12 (some centres not stated)', 'inactive'),
  ('CCCCC[C@H](O)c1cccc(OCc2ccc3ccccc3n2)c1', 'inactive'),
  ('NCCNC(=O)c1ccc(Cl)cc1', 'inactive'),
  ('COC[C@H]1OC(=O)c2coc3c2[C@@]1(C)C1=C(C3=O)[C@H]2CCC(=O)[C@@]2(C)C[C@H]1OC(C)=O', 'inactive'),
  ('CCCCCCCCCCCCCCCC(=O)O[C@H](CC(=O)O)C[N+](C)(C)C', 'inactive'),
  ('CCn1c(=O)c2[nH]c(-c3ccccc3)nc2n(CC)c1=O', 'inactive');
